The measurements presented in this section are drawn from ChEMBL document CHEMBL1151568.

Readings of Relative potency for the listed compounds
Biological target: Thromboxane A2 receptor (Homo sapiens) (UniProt P21731)
Sequence (P21731 whole entry): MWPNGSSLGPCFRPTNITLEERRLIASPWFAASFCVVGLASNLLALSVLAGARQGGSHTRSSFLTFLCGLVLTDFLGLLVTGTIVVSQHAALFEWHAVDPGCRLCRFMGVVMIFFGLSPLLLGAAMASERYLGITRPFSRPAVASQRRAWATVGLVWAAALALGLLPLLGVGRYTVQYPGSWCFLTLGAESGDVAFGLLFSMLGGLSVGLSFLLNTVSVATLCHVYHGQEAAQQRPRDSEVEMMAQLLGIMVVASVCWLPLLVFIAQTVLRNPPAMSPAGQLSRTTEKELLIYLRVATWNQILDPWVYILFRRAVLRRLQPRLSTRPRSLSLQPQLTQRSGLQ
Assay: Antiaggregatory potency relative to TP-receptor antagonist SQ 29548
Type: functional
Output: the number by itself.

As a guide, the following entries are already answered.
> print(dat)
                              smiles.record  value.reported
1  O=C(O)CC/C=C1\C[C@H]2C[C@@H](O)[C@H](/C=N/NC(=O)Nc3cccc(Cl)c3)[C@H]2C1           0.004
2  O=C(O)COC/C=C1\C[C@H]2C[C@@H](O)[C@H](/C=N/NC(=O)Nc3ccccc3)[C@H]2C1           0.008
3  O=C(O)CCC/C=C1\C[C@H]2C[C@@H](O)[C@H](/C=N/OCc3ccccc3)[C@H]2C1           0.009

Alright, here's another compound for you.
*Q* If you can, please state the reported Relative potency value of `O=C(O)CCC/C=C1\C[C@H]2C[C@@H](O)[C@H](/C=N/OCc3ccc(F)cc3)[C@H]2C1` .
*A* 0.009
